Target: T1, human chemokine (C-C motif) receptor 8 (CCR8) (human, UniProt P51685 1-355)
T1 construct: also called hCCR8
T1 sequence (P51685 whole entry): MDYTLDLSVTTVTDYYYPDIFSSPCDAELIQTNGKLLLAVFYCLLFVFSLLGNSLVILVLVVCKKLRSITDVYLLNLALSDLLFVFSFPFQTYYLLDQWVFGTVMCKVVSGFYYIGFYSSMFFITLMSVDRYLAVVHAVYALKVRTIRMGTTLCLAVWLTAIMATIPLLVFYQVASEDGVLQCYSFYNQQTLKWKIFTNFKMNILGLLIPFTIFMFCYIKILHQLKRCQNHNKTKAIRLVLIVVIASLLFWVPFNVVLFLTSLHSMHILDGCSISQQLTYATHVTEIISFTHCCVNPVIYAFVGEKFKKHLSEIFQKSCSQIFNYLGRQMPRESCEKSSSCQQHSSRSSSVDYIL
Assay: flow cytometry blocking, human PBMC, CD3+ gate; % cells stained by competitor PE-AB7 after block
# % Positive cells listing for each entry below
Use % as the unit, but write only the number.

binder	reported.property	recorded.measurement
anti-CCR8 monoclonal antibody AB7 (antibody, V domains shown, Hybridoma monoclonal; also called antibody 7; clone 7) VH: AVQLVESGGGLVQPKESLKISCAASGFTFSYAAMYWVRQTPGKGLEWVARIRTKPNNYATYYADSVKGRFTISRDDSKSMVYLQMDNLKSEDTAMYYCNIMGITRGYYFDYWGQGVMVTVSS VL: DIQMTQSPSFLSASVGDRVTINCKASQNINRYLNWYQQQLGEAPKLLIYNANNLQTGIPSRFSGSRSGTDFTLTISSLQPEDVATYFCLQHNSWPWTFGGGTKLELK	% Positive cells	1.47
anti-CCR8 monoclonal antibody AB13 (antibody, V domains shown, Hybridoma monoclonal; also called antibody 13; clone 13) VH: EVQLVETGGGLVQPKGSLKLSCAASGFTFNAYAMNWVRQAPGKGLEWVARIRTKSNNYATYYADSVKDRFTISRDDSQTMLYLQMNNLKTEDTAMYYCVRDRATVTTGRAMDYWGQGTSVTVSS VL: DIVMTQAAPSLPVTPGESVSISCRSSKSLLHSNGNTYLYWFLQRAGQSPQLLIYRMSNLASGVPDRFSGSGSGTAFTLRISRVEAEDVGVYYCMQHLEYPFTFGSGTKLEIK	% Positive cells	6.34
anti-CCR8 monoclonal antibody AB11 (antibody, V domains shown, Hybridoma monoclonal; also called antibody 11; clone 11) VH: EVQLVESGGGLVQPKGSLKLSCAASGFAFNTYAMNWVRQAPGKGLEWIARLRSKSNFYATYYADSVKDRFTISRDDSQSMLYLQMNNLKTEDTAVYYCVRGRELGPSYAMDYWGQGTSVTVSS VL: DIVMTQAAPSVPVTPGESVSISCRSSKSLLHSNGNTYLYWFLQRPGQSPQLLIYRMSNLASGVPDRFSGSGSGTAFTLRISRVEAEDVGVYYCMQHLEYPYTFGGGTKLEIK	% Positive cells	8.87

Field: next binder
% Positive cells lookup needed for anti-CCR8 monoclonal antibody AB10 (antibody, V domains shown, Hybridoma monoclonal; also called antibody 10; clone 10) VH: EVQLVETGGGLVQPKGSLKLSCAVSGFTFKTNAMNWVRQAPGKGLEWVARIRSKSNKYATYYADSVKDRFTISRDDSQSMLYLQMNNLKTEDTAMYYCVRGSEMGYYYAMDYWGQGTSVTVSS VL: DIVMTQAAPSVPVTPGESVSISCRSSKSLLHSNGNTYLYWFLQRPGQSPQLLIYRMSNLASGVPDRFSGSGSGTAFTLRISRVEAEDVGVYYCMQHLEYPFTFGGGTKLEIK , thanks.
4.54
